# TARGET DESC: recombinant soluble homotrimeric HA of A/common magpie/Hong Kong/5052/07 (H5N1) (Influenza A virus A/common magpie/Hong Kong/5052/2007 (H5N1))
# EXPERIMENT DESCRIPTION: HA microarray, BCC supernatant
# RUN PARAMETERS: remark: other sources report otherwise

{"BINDER": "TCN-540 (5060_F05) (antibody, V domains shown) VH: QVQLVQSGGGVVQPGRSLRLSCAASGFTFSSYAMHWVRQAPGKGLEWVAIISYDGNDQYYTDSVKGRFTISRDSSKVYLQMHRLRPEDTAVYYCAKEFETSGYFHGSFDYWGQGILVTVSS VL: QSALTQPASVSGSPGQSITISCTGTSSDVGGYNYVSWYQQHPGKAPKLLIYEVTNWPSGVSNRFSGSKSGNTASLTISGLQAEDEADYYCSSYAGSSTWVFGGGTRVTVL", "Trimeric HA Binding RLU": "113 RLU"}
{"BINDER": "TCN-521 (3280_D18) (antibody, V domains shown) VH: EVQLVQSGGGLVQPGGSLRLACVVSGFTVTSNYITWVRQAPGKGLEWVSVIYSHGRAYYSASVNGRFTISRHTSKNTVYLEMNSLRPEDTAVYYCAGGGLVGGYDEYFFDYWGQGTLATVSS VL: ETVLTQSPGTLSLTPGERATLSCRVGQSVSGSHLAWYQQKPGQAPRLLIYGASSRATGIPDRFGGSVSGTDFTLTISRLEPEDSAVYYCQQYGDSRYTFGQGTKLEIK", "Trimeric HA Binding RLU": "13500 RLU"}
{"BINDER": "TCN-535 (5246_P19) (antibody, V domains shown) VH: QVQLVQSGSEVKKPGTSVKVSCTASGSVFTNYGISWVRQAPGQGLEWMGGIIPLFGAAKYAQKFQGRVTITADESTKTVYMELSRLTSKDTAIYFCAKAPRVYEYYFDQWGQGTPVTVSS VL: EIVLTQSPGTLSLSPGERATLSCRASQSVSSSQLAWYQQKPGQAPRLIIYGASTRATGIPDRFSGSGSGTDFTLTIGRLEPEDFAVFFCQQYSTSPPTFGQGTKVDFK", "Trimeric HA Binding RLU": "45900 RLU"}
